The reported measurements were obtained from patent US11110082B2.

# system under test: MerTK (Homo sapiens, UniProt Q12866)
# Construct: Seed HUVECs (10K cells/well) in EBM-2 complete media
# assay details: PAKT HTRF-HUVEC assay (pAkt Ser473 HTRF after anti-human MerTK-XL stimulation)
# assay context: HUVEC cells, 1 hour compound, stimulated with anti-human MerTK-XL 1 ug/mL for 10 minutes, read-out: inhibition of MerTK
test readout: EC50 (nM)

Record excerpt, results attached:
1. O=c1c2cc(CN3CCN(c4ccncn4)CC3)ccc2c2cnc(NC3CCC3)nc2n1[C@H]1CC[C@H](O)CC1 [Compound 226] | 10.9
2. O=c1c2cc(CN3CCN4CCC[C@@H]4C3)ccc2c2cnc(NCC3CC3)nc2n1[C@H]1CC[C@H](O)CC1 [Compound 159] | 48.7
3. CCCCNc1ncc2c3ccc(CN4CCOCC4)cc3c(=O)n([C@H]3CC[C@H](O)CC3)c2n1 [Compound 2] | 44.2

I: O=c1c2cc(CN3CCSCC3)ccc2c2cnc(NCC3CC3)nc2n1[C@H]1CC[C@H](O)CC1 [Compound 170]
II: CN1CCN(Cc2ccc3c(c2)c(=O)n([C@H]2CC[C@H](O)CC2)c2nc(NC4CC4)ncc32)CC1 [Compound 196]
Request: Between I and II , which one has the lower reported EC50 value? Give the label under which the chosen entry appears.
Result: I

I: O=c1c2cc(CN3CCS(=O)(=O)CC3)ccc2c2cnc(NCC3CC3)nc2n1[C@H]1CC[C@H](O)CC1 [Compound 160]
II: CCC[C@H](C)Nc1ncc2c3ccc(CN4CCN(C)CC4)cc3c(=O)n([C@H]3CC[C@H](O)CC3)c2n1 [Compound 213]
Request: Between I and II , which one has the lower reported EC50 value? Give the label under which the chosen entry appears.
Result: II
(II: 30.4 nM, I: 221 nM)

I: O=c1c2cc(CN3CCOCC3)ccc2c2cnc(NCCC3CC3)nc2n1[C@H]1CC[C@H](O)CC1 [Compound 27]
II: CN1CCN(Cc2ccc3c(c2)c(=O)n([C@H]2CCC[C@H](O)CC2)c2nc(NCC4CC4)ncc32)CC1 [Compound 230]
III: O=c1c2cc(CN3CC[S+]([O-])CC3)ccc2c2cnc(NCC3CC3)nc2n1[C@H]1CC[C@H](O)CC1 [Compound 165]
IV: O=c1c2cc(CN3CCN(c4ccncc4)CC3)ccc2c2cnc(NCCC3CC3)nc2n1[C@H]1CC[C@H](O)CC1 [Compound 222]
V: C[C@]1(O)CC[C@H](n2c(=O)c3cc(CN4CCN(c5ccncc5)CC4)ccc3c3cnc(NCC4CC4)nc32)CC1 [Compound 224]
Request: Let's sort these by EC50, smallest first. Go ahead? Your reply should list the labels following the order given in the request.
Result: IV, V, I, II, III
(IV: 14.5 nM, V: 28.3 nM, I: 45.9 nM, II: 140 nM, III: 401 nM)

====

# system under test: MerTK (Homo sapiens, UniProt Q12866)
# Construct: Seed HUVECs (10K cells/well) in EBM-2 complete media
# Sequence (Q12866 21-999): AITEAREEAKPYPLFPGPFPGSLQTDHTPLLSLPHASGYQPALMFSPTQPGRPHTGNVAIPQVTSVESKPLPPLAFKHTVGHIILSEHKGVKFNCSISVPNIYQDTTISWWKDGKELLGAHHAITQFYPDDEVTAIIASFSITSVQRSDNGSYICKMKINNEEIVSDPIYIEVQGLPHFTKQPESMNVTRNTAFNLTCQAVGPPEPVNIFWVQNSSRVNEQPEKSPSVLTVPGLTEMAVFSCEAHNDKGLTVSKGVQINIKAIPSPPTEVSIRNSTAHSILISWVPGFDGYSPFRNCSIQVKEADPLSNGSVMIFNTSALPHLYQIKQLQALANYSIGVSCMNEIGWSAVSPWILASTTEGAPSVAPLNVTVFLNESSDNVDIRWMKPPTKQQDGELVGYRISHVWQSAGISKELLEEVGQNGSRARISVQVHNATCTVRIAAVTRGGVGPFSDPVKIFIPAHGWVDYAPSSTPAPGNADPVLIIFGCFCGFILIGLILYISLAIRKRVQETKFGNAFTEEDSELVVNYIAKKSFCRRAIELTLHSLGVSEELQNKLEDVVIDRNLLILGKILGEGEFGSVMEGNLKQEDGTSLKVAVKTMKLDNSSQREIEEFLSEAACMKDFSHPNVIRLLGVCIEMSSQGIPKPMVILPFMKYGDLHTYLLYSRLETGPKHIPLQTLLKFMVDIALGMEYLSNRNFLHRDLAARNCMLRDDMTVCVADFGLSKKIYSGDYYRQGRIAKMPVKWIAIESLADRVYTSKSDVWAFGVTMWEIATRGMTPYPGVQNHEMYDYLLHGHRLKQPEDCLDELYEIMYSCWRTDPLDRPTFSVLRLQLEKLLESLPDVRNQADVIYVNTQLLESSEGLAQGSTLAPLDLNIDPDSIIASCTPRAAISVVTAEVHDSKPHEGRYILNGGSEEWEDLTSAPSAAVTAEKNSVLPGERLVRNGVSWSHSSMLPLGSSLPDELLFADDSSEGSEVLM
# assay details: PAKT HTRF-HUVEC assay (pAkt Ser473 HTRF after anti-human MerTK-XL stimulation)
# assay context: HUVEC cells, 1 hour compound, stimulated with anti-human MerTK-XL 1 ug/mL for 10 minutes, read-out: inhibition of MerTK
test readout: EC50 (nM)

Record excerpt, results attached:
1. C[C@]1(O)CC[C@H](n2c(=O)c3ccccc3c3cnc(NCC4CCC4)nc32)CC1 [Compound 123] | 76.5
2. O=c1c2cc(CN3CCC(N4CCCC4)CC3)ccc2c2cnc(NCC3CC3)nc2n1[C@H]1CC[C@H](O)CC1 [Compound 37] | 53.8

I: O=c1c2cc(CN3CCN(c4ccncc4)CC3)ccc2c2cnc(NC3CC(F)(F)C3)nc2n1[C@H]1CC[C@H](O)CC1 [Compound 212]
II: O=c1c2cc(N3CCNCC3)ccc2c2cnc(NCC3CC3)nc2n1[C@H]1CC[C@H](O)CC1 [Compound 174]
Request: // which entry has the larger EC50 value, I or II ? Give the label under which the chosen entry appears.
Result: II
